test: Solubility in water; assay type: physicochemical
Measure name: solubility

So what's the measured solubility for this one? CC1O[C@@H](OC2C(O)[C@@H](NC(=O)CCCCCCCCCCC(=O)O)C(CO)O[C@H]2OC(=O)[C@]23CCC(C)(C)CC2C2=CCC4C5(C)CC[C@H](O)C(C)(C=O)C5CCC4(C)C2(C)CC3O)C(O)C(O)[C@H]1O[C@@H]1OC[C@@H](O)C(O)C1O (stereo partly shown) [Form A]
> 6000 µg/mL

* * *

assay: TQL-1055 choline salt and free acid ethanol solubility; format: physicochemical; conditions: 100% ethanol, 37 °C, organic solvent or mixture, thermodynamic from solid, solubility in 100% ethanol, vortex mixed, sonicated at 37° C. for five minutes
Counter-ions that a name gives are not always drawn.
Exercise: for every item that follows, state its recorded solubility at 5 min.

CC1O[C@@H](OC2C(O)[C@@H](NC(=O)CCCCCCCCCCC(=O)O)C(CO)O[C@H]2OC(=O)[C@]23CCC(C)(C)CC2C2=CCC4C5(C)CC[C@H](O)[C@](C)(C=O)[C@@H]5CC[C@]4(C)[C@]2(C)CC3O)C(O)C(O)[C@H]1O[C@@H]1OC[C@@H](O)C(O)C1O (some centres unmarked) [Compound I-4]	~2000 µg/mL

Now consider the entry below.
State the recorded solubility at 5 min for this entry: CC1O[C@@H](OC2C(O)[C@@H](NC(=O)CCCCCCCCCCC(=O)O)C(CO)O[C@H]2OC(=O)[C@]23CCC(C)(C)CC2C2=CCC4C5(C)CC[C@H](O)C(C)(C=O)C5CCC4(C)C2(C)CC3O)C(O)C(O)[C@H]1O[C@@H]1OC[C@@H](O)C(O)C1O (some centres unmarked) [TQL-1055 choline salt]
~3000 µg/mL
